test system: HCT-15; assay: Antiproliferative activity against human HCT15 cells after 72 hrs by sulforhodamine B assay; type: functional, cell-based; conditions: HCT-15, 72 h
Metric Name: pIC50
Give bare numbers, as −log10 of the molar value.

Guide cases for pIC50, answers given:
[
  {
    "Molecule": "CCCC(=O)OC/C=C/c1ccc(OC(=O)CCC)c(OC)c1",
    "Assay System": "HCT-15",
    "pIC50": 4.54
  },
  {
    "Molecule": "CCCCCCCCCCCCCCCCCCCCOC(=O)/C=C/c1ccc(O)c(OC)c1",
    "Assay System": "HCT-15",
    "pIC50": 4.82
  },
  {
    "Molecule": "CCCC(=O)Oc1ccc(/C=C/COC(C)=O)cc1OC",
    "Assay System": "HCT-15",
    "pIC50": 4.77
  },
  {
    "Molecule": "COc1cc(/C=C/COC(C)=O)ccc1OC(C)=O",
    "Assay System": "HCT-15",
    "pIC50": 5.49
  },
  {
    "Molecule": "CCCC(=O)c1c(O)cc(O)cc1O[C@@H]1O[C@H](CO)[C@@H](O)[C@H](O)[C@H]1O",
    "Assay System": "HCT-15",
    "pIC50": 5.72
  }
]

Report pIC50 for each item below.
1. CCCC(=O)OC/C=C/c1ccc(OC(C)=O)c(OC)c1
2. C/C(=C\CO)CCC[C@H](C)CCC[C@H](C)CCCC(C)C [TRANS-PHYTOL]
3. O=c1c(O[C@@H]2O[C@H](CO)[C@@H](O)[C@H](O)[C@H]2O)c(-c2ccc(O)cc2)oc2cc(O)cc(O)c12
4. CCC(=O)OC/C=C/c1ccc(OC(=O)CC)c(OC)c1
5. COc1cc(/C=C/COC(=O)C(C)C)ccc1OC(=O)C(C)C

[A]
4.64
4.65
4.63
4.53
4.46

* * *

system: U-87 MG; assay: Antiproliferative activity against human U87MG cells after 72 hrs by sulforhodamine B assay; type: functional, cell-based, U-87MG ATCC
Metric Name: pIC50
Numbers only, as −log10 of the molar value.

Guide cases for pIC50, answers given:
[
  {
    "Compound": "CCCCCCCCCCCCCCCCCCCCOC(=O)/C=C/c1ccc(O)c(OC)c1",
    "pIC50": 5.28
  },
  {
    "Compound": "COc1cc(/C=C/COC(C)=O)ccc1OC(C)=O",
    "pIC50": 5.97
  },
  {
    "Compound": "CC[C@H](C)C(=O)OC/C=C/c1ccc(OC(C)=O)c(OC)c1",
    "pIC50": 4.82
  },
  {
    "Compound": "CCCC(=O)c1c(O)cc(O)cc1O[C@@H]1O[C@H](CO)[C@@H](O)[C@H](O)[C@H]1O",
    "pIC50": 5.41
  },
  {
    "Compound": "CC[C@H](C)C(=O)Oc1ccc(/C=C/COC(C)=O)cc1OC",
    "pIC50": 6.32
  },
  {
    "Compound": "O=c1c(O[C@@H]2O[C@H](CO)[C@@H](O)[C@H](O)[C@H]2O)c(-c2ccc(O)cc2)oc2cc(O)cc(O)c12",
    "pIC50": 5.51
  }
]

Report pIC50 for each item below.
1. CCCC(=O)OC/C=C/c1ccc(OC(C)=O)c(OC)c1
2. CCC(=O)OC/C=C/c1ccc(OC(=O)CC)c(OC)c1
3. CCCC(=O)OC/C=C/c1ccc(OC(=O)CCC)c(OC)c1
4. COc1cccc2c1C(=O)c1c(O)c3c(c(O)c1C2=O)C[C@@](O)(C(=O)CO)C[C@@H]3O[C@H]1C[C@H](N)[C@H](O)[C@H](C)O1

[A]
1. 4.73
2. 4.54
3. 4.76
4. 6.03

* * *

Please go through the items and note down their IC50.
tested on: HCT-15; experiment: Antiproliferative activity against human HCT15 cells after 72 hrs by sulforhodamine B assay; assay type: functional, cell-based; details: HCT-15, 72 h
One number for each entry, in µM.

Guide cases for IC50, answers given:
[
  {
    "Compound": "CC[C@H](C)C(=O)Oc1ccc(/C=C/COC(C)=O)cc1OC",
    "Observed Result": 4.58
  },
  {
    "Compound": "COc1cccc2c1C(=O)c1c(O)c3c(c(O)c1C2=O)C[C@@](O)(C(=O)CO)C[C@@H]3O[C@H]1C[C@H](N)[C@H](O)[C@H](C)O1 [DOXORUBICIN]",
    "Observed Result": 1.13
  }
]

Then there is this compound:
// CC[C@H](C)C(=O)OC/C=C/c1ccc(OC(C)=O)c(OC)c1 : IC50 value = 34.1

* * *

test system: U-87 MG; experiment: Antiproliferative activity against human U87MG cells after 72 hrs by sulforhodamine B assay; assay type: functional, cell-based, U-87MG ATCC
Metric Name: pIC50
Numbers only, as −log10 of the molar value.

Guide cases for pIC50, answers given:
[
  {
    "Compound": "COc1cc(/C=C/COC(=O)C(C)C)ccc1OC(=O)C(C)C",
    "Observed Result": 4.53
  },
  {
    "Compound": "C/C(=C\\CO)CCC[C@H](C)CCC[C@H](C)CCCC(C)C [TRANS-PHYTOL]",
    "Observed Result": 5.10
  }
]

Then there is this compound:
// CCCC(=O)Oc1ccc(/C=C/COC(C)=O)cc1OC : pIC50 value = 4.98
